Entry source: PubChem BioAssay

Reported composite z-score values for a set of molecules
Test system: Lefty1
Test: Lefty1 protein binding to printed compounds – biochemical, small-molecule microarray, 635/667 nm fluorescence, primary screen (AID 1139)
Conditions: fluorescence 635/667, higher = more signal
In your answer, state the number alone without any accompanying words.

chemical-smiles: CC1=C2[C@@H](CCc3ccccc3)OB(O)C[C@@H]2[C@@H]2C(=O)C=CC(=O)[C@@H]2C1
composite z-score: 0.845

chemical-smiles: COc1ccc(C#Cc2ccc3c(c2)[C@]2(C(=O)N3)[C@H](C(=O)O)[C@H]3C(=O)O[C@H](c4ccccc4)[C@H](c4ccccc4)N3[C@@H]2c2ccc(OCCO)cc2)cc1
composite z-score: 0.128

chemical-smiles: CCOC(=O)C1=CC[C@@H](c2ccc(N(CC)CC)cc2)N(S(=O)(=O)c2ccc(C)cc2)[C@H]1c1ccc([N+](=O)[O-])cc1
composite z-score: -0.863

chemical-smiles: C[N+](C)(C)CCCCCCNC(=O)[C@@H]1C[C@@H]2C(=O)NCC(=O)N2[C@@H]1c1ccc(O)cc1
composite z-score: 1.53

chemical-smiles: COCCCNC(=O)[C@@]1(Cc2ccccc2N=[N+]=[N-])N=C(c2ccc(OCCCO)cc2)O[C@H]1c1ccccc1CN=[N+]=[N-]
composite z-score: -0.113

Find the recorded composite z-score belonging to CO[C@H]1O[C@H](CO)[C@@H](OC(=O)c2ccc(Br)cc2)[C@@H]2OC(=O)[C@H](Cc3cccc(Br)c3)C/C=C/C[C@@H](Cc3cccc(Br)c3)C(=O)O[C@@H]12 and report it.
0.442

Find the recorded composite z-score belonging to COc1cc2c(cc1OC)CN(C(=O)[C@@H]1[C@H]3C(=O)O[C@H](c4ccccc4)[C@H](c4ccccc4)N3[C@H](c3ccc(OCCO)cc3)[C@@]13C(=O)Nc1ccc(C#CCCO)cc13)CC2 and report it.
1.08
